Recorded measurements of IC50, one per entry
# Target entity: rat FAAH (Rattus norvegicus (Rat))
# Sequence (P97612 whole entry): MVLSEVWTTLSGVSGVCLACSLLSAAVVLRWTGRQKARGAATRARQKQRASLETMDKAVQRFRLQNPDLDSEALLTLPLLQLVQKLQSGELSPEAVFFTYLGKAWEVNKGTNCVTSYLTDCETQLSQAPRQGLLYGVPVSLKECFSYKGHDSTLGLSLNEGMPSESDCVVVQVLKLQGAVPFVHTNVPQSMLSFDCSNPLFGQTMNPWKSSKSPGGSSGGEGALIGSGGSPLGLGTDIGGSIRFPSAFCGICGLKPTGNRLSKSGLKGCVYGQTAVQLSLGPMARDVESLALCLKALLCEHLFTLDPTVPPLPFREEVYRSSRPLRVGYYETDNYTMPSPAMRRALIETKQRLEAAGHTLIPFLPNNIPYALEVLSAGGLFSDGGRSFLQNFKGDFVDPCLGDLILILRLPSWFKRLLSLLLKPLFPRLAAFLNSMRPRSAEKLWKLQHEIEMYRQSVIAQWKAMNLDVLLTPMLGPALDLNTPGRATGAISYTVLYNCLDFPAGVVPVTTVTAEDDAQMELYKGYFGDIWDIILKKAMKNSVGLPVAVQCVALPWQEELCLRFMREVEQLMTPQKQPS
# Test: Assay Method 3: FAAH assay, cells transfected with rat FAAH
# Type: biochemical
# Experimental conditions: T84 or rat FAAH-transfected SK-N-MC cell homogenate, 3H-AEA tracer 80 nM, 1 h at rt
State the answer as a number, implicitly in µM.

{"columns": ["Compound", "IC50 (µM)"],
 "data": [
  ["O=C(Nc1ccc(F)cc1)N1CCN(Cc2ccc3ccccc3c2)CC1", 0.43],
  ["O=C(Nc1ccccn1)N1CCN(Cc2cnc3ccccc3c2)CC1", 8],
  ["COC(=O)c1ccccc1NC(=O)N1CCN(Cc2cnc3ccccc3c2)CC1", 10],
  ["CC(C)c1ccc(CN2CCN(C(=O)Nc3ccccc3)CC2)cc1", 10],
  ["O=C(Nc1ccc(F)cc1F)N1CCN(Cc2cnc3ccccc3c2)CC1", 2],
  ["O=C(Nc1ccccc1)N1CCN(Cc2ccc3c(c2)OCO3)CC1 [Example B, reference compound]", 8],
  ["O=C(Nc1ccc(F)cc1)N1CCN(Cc2cnc3ccccc3c2)CC1", 6.5],
  ["COC(=O)c1ccc(NC(=O)N2CCN(Cc3cnc4ccccc4c3)CC2)cc1", 8]
]}

### Prompt Param readout = IC50; param system = rat FAAH (Rattus norvegicus (Rat)); param query = O=C(Nc1ccncc1)N1CCN(Cc2cnc3ccccc3c2)CC1 ; response: value
### Response 10
